# Kd annotations
TGT: PARP-1 (full-length) (human, UniProt P09874 1-1014, V762A)
Sequence (P09874 whole entry V762A): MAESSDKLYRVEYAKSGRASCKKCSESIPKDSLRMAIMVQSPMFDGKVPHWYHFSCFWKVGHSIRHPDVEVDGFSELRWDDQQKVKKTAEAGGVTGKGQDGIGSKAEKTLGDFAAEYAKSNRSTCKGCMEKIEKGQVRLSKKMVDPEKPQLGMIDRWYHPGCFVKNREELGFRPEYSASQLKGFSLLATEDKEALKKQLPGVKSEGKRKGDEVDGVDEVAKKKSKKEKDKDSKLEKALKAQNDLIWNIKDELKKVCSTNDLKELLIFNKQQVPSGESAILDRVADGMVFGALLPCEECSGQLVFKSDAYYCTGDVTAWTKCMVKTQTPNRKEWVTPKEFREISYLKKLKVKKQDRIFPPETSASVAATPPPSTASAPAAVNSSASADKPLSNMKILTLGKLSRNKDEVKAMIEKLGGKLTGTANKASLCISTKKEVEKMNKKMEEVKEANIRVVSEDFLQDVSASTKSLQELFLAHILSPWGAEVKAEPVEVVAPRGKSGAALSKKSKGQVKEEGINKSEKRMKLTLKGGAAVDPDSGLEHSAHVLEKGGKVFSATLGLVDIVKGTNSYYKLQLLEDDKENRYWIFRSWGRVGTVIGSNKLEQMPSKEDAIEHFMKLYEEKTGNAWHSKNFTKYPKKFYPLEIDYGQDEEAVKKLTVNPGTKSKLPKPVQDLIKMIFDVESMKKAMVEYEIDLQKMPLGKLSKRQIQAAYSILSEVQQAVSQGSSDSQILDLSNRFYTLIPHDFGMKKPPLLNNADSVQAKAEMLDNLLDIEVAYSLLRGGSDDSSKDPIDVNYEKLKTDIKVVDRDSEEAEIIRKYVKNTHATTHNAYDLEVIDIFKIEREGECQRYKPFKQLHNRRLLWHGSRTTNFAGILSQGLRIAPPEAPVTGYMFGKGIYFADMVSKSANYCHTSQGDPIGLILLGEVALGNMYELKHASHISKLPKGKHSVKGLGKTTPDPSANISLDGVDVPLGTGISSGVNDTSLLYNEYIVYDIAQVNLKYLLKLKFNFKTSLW
ASSAY: HI-FI FRET
Provide the reading as a plain figure in nM.

BINDER	Kd (nM)
30AATT (dsDNA, 4 central bp of 30Blunt (TGTG) replaced by AATT) DNA 1: ATCAGATAGCATCAATTCGGCCGCTTAGGG DNA 2: CCCTAAGCGGCCGAATTGATGCTATCTGAT	8.5

Next up:
Kd for 30Blunt (dsDNA) DNA 1: ATCAGATAGCATCTGTGCGGCCGCTTAGGG DNA 2: CCCTAAGCGGCCGCACAGATGCTATCTGAT ? 31.7
